MEASUREMENT_TARGET: HLA-A*11:01 (human)
EXPERIMENT: K562 cells expressing a single HLA allele and the 20-neoantigen cassette; HLA immunoprecipitation, peptide elution, targeted MS with heavy peptide
REPORTED_METRIC: binding result

* VVVGADGVGK (also called pep. #2) [KRAS_G12D neoepitope VVVGADGVGK] | binds
* VVVGAVGVGK [KRAS_G12V neoepitope VVVGAVGVGK] | binds
* ATAPSLSGK (Eluted from HLA of single-HLA K562 cells expressing the shared neoantigen cassette; also called CTNNB1_T41A 9-mer) [CTNNB1_T41A neoepitope ATAPSLSGK] | binds
* TTAPPLSGK (Endogenous peptide eluted from HLA; also called CTNNB1_S45P 9-mer) [CTNNB1_S45P neoepitope TTAPPLSGK] | binds

The measured values listed here are drawn from patent US20250255946A1.
